- targetOrSystem: His6-AspH315–758 (human aspartate/asparagine-β-hydroxylase, AspH) (Homo sapiens)
- Construct: N-Terminally His6-tagged human AspH315–758 (His6-AspH315–758) was produced in E. coli BL21 (DE3) cells; made in house; host or cells: E. coli BL21 (DE3), pET-28a(+) vector
- procedureText: SPE-MS AspH inhibition assay (LOPAC screen at fixed 20 μM and IC50 dose-response), hydroxylation of cyclic peptide hFX-CP101–119
- Type: biochemical
- particulars: LOPAC Plate 4, compound at 20 uM, substrate conversion
measuredProperty: % conversion
Enter the number, and then the unit.

Check out these entries, answers already filled in.
C=C(C)[C@H]1CC=C(C(=O)O)CC1 [(-)-Perillic acid]    29.82%
O=C(O)/C=C\C(=O)O.O=[N+]([O-])c1ccc2nc(N3CCNCC3)ccc2c1 [Quipazine, 6-nitro-, maleate]    31.15%
CCN(CC)CCOC(=O)c1cc(Cl)c(N)cc1OC.Cl [SDZ-205,557 hydrochloride]    37.29%
CN1CCN(CCCN2c3ccccc3Sc3ccc(Cl)cc32)CC1 [Prochlorperazine dimaleate]    48.18%
CCN(CC)C(=S)SSC(=S)N(CC)CC [Tetraethylthiuram disulfide]    22.31%
COc1ccc(C2(O)OC(=O)C(c3ccc4c(c3)OCO4)=C2Cc2cc(OC)c(OC)c(OC)c2)cc1 (centres unmarked)    36.15%

Bench note: what % conversion did CN(C)C[C@H](O)Cn1c2ccc(Br)cc2c2cc(Br)ccc21 (racemic) show?
31.93%

// query: C=CC(N)CCC(=O)O (racemic) [(±)-gamma-Vinyl GABA]
37.96%

----------
- targetOrSystem: His6-AspH315–758 (human aspartate/asparagine-β-hydroxylase, AspH) (Homo sapiens)
- Construct: N-Terminally His6-tagged human AspH315–758 (His6-AspH315–758) was produced in E. coli BL21 (DE3) cells; made in house; host or cells: E. coli BL21 (DE3), pET-28a(+) vector
- procedureText: SPE-MS AspH inhibition assay (LOPAC screen at fixed 20 μM and IC50 dose-response), hydroxylation of cyclic peptide hFX-CP101–119
- Type: biochemical
- particulars: pH 7.5; read-out: IC50
measuredProperty: IC50 (nM)
Just the number please, in nM, no unit attached.

Bench note: what IC50 did O=C1Nc2ccc(I)cc2/C1=C/c1cc(Br)c(O)c(Br)c1 [GW5074, reference compound] show?
2480

----------
- targetOrSystem: His6-AspH315–758 (human aspartate/asparagine-β-hydroxylase, AspH) (Homo sapiens)
- Construct: N-Terminally His6-tagged human AspH315–758 (His6-AspH315–758) was produced in E. coli BL21 (DE3) cells; made in house; host or cells: E. coli BL21 (DE3), pET-28a(+) vector
- Sequence (Q12797 315-758): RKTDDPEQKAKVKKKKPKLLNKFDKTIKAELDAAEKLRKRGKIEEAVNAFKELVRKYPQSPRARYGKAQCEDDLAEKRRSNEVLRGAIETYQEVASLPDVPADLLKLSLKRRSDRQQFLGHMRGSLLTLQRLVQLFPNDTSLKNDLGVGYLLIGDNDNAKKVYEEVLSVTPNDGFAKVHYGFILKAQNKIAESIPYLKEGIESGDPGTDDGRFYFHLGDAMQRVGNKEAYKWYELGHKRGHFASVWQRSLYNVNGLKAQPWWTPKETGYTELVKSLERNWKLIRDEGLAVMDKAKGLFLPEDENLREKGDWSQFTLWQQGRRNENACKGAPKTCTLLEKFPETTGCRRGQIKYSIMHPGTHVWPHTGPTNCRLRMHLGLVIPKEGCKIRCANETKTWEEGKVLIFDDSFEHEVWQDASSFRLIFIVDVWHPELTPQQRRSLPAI
- procedureText: SPE-MS AspH inhibition assay (LOPAC screen at fixed 20 μM and IC50 dose-response), hydroxylation of cyclic peptide hFX-CP101–119
- Format: biochemical
- particulars: LOPAC Plate 4, compound at 20 uM
# maps each entry to its % inhibition
Just the number please, in %, no unit attached.

Cl.NCCc1ccc(O)cc1 [4-Hydroxyphenethylamine hydrochloride]    -7.46

Next, consider the following molecule.
Bench note: what % inhibition did CN(C)c1ccccc1CN1CCCN(Cc2ccccc2N(C)C)C1c1ccncc1 [GANT61] show?
-13.34

----------
- targetOrSystem: His6-AspH315–758 (human aspartate/asparagine-β-hydroxylase, AspH) (Homo sapiens)
- Construct: N-Terminally His6-tagged human AspH315–758 (His6-AspH315–758) was produced in E. coli BL21 (DE3) cells; made in house; host or cells: E. coli BL21 (DE3), pET-28a(+) vector
- procedureText: SPE-MS AspH inhibition assay (LOPAC screen at fixed 20 μM and IC50 dose-response), hydroxylation of cyclic peptide hFX-CP101–119
- Format: biochemical
- particulars: LOPAC Plate 4, compound at 20 uM, substrate conversion
Counter-ions that a name gives are not always drawn.
# maps each entry to its % conversion
Enter the number, and then the unit.

Check out these entries, answers already filled in.
N#CC(C#N)=Cc1ccc(O)c(O)c1 [Tyrphostin 23, reference compound]    2.79%
COc1cc2c(cc1OC)C1CC(=O)C(CC(C)C)CN1CC2 (centres unmarked) [Tetrabenazine]    27.36%
CNCCCC1c2ccccc2C=Cc2ccccc21 [Protriptyline hydrochloride]    29.36%
CC1=C(/C=C/C(C)=C/C=C/C(C)=C\C(=O)O)C(C)(C)CCC1 [13-cis-retinoic acid]    23.26%
CC(C)[N+](C)(CCOC(=O)C1c2ccccc2Oc2ccccc21)C(C)C [Propantheline bromide]    33.19%
NCCS(=O)(=O)O [Taurine]    39.69%
C[C@]12CCC(=O)C=C1CC[C@@H]1[C@@H]2CC[C@@]2(C)[C@H]1CC[C@]2(O)C(=O)CO [Cortexolone]    39.11%
N#CC(C#N)=C(N)/C(C#N)=C/c1ccc(O)cc1 [Tyrphostin AG 112]    37.12%
COc1ccc(CCN(C)CCc2ccc(OC)c(OC)c2)cc1OC.Cl [YS-035 hydrochloride]    41.15%
CC(O)(CS(=O)(=O)c1ccc(F)cc1)C(=O)Nc1ccc(C#N)c(C(F)(F)F)c1 (centres unmarked) [Bicalutamide (CDX)]    24.70%

Bench note: what % conversion did CSc1ccc2c(c1)N(CCC1CCCCN1C)c1ccccc1S2 (centres unmarked) [Thioridazine hydrochloride] show?
43.98%

----------
# maps each entry to its % inhibition
- targetOrSystem: His6-AspH315–758 (human aspartate/asparagine-β-hydroxylase, AspH) (Homo sapiens, UniProt Q12797)
- Construct: N-Terminally His6-tagged human AspH315–758 (His6-AspH315–758) was produced in E. coli BL21 (DE3) cells; made in house; host or cells: E. coli BL21 (DE3), pET-28a(+) vector
- procedureText: SPE-MS AspH inhibition assay (LOPAC screen at fixed 20 μM and IC50 dose-response), hydroxylation of cyclic peptide hFX-CP101–119
- Type: biochemical
- particulars: 20 µM
Just the number please, in %, no unit attached.

COc1ccccc1N1CCNCC1.Cl    -3.01
Cl.O=c1[nH]oc2c1CCNC2 [THIP hydrochloride]    -0.58

Bench note: what % inhibition did Nc1ccc(CCN2CCN(c3cccc(C(F)(F)F)c3)CC2)cc1 show?
-16.38

// query: Cl.OC1CCCCC1N1CCC(c2ccccc2)CC1 (racemic) [(±)-Vesamicol hydrochloride]
-13.00

// query: C#C[C@]1(O)CC[C@H]2[C@@H]3CCC4=Cc5nc6nc7ccccc7n6cc5C[C@]4(C)[C@H]3CC[C@@]21C
-1.63

----------
- targetOrSystem: His6-AspH315–758 (human aspartate/asparagine-β-hydroxylase, AspH) (Homo sapiens, UniProt Q12797)
- Construct: N-Terminally His6-tagged human AspH315–758 (His6-AspH315–758) was produced in E. coli BL21 (DE3) cells; made in house; host or cells: E. coli BL21 (DE3), pET-28a(+) vector
- Sequence (Q12797 315-758): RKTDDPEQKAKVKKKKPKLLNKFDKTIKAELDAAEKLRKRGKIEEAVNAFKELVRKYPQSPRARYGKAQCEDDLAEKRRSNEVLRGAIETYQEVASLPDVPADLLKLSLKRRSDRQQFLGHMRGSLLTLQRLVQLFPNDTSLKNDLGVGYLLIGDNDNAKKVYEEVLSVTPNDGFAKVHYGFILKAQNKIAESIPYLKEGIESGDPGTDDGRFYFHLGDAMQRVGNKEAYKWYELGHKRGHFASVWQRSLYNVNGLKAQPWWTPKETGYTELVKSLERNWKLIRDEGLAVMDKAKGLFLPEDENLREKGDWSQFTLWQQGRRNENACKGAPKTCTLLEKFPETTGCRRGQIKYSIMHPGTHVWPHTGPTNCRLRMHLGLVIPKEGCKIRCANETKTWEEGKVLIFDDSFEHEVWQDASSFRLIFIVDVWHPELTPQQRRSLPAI
- procedureText: SPE-MS AspH inhibition assay (LOPAC screen at fixed 20 μM and IC50 dose-response), hydroxylation of cyclic peptide hFX-CP101–119
- Assay type: biochemical
- particulars: LOPAC Plate 4, compound at 20 uM, substrate conversion
Counter-ions that a name gives are not always drawn.
Response key: 1 means % conversion >= 30%; 0 means % conversion < 30%.

CN(C)C/C=C(/c1ccc(Br)cc1)c1cccnc1 [Zimelidine dihydrochloride]    1
COc1cc2nc(N3CCN(C(=O)c4ccco4)CC3)nc(N)c2cc1OC [Prazosin hydrochloride]    1
Cc1cccc(/C=C/c2ccccc2)n1    1
FC(F)(F)c1ccccc1-n1ccnc1 [1-[2-(Trifluoromethyl)phenyl]imidazole]    0

Turning now to a further record.
Does Clc1ccc2nsnc2c1NC1=NCCN1 [Tizanidine hydrochloride] have a reported % conversion of at least 30%?
1
